target: Torsin-1A (Homo sapiens) (UniProt O14656); test: small-molecule binders of mutant TOR1A in lysate, primary screen, cell lysate, small-molecule microarray, COS7 lysate, 635/667 nm fluorescence (AID 1150); settings: COS7 hTOR1A mutant lysate, 635 nm fluorescence, higher = more signal;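 also: score pools 667 nm emission and signal to noise measuring lysate protein binding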
Sequence (O14656 whole entry, looked up): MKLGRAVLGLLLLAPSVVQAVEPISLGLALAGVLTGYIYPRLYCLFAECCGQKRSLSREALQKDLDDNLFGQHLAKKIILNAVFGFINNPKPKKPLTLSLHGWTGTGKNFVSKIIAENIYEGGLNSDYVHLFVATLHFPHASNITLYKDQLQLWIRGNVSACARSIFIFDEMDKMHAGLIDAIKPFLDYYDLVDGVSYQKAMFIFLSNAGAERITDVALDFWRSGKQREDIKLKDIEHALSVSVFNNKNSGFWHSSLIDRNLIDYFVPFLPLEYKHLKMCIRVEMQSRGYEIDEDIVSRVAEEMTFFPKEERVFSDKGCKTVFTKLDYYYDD
# Lookup of reported composite z-score keyed by entry
I'd appreciate a reply containing only the number, no unit.

Reference set, count: 3
INSERT INTO assay_data (molecule, target_or_system, observation_type, result_value) VALUES
  ('CCc1cc2c(nc1CC)CCN(CCC(C)=NO[C@@H](C)c1cc(-c3c(C)cc(C)cc3C)no1)C2', 'Torsin-1A (Homo sapiens) (UniProt O14656)', 'composite z-score', 0.0048),
  ('CC(CCN1CCc2nc(-c3ccccc3)c(-c3ccccc3)cc2C1)=NOC[C@@H](C)[C@H](OCc1ccccc1)C(C)C', 'Torsin-1A (Homo sapiens) (UniProt O14656)', 'composite z-score', -1.21),
  ('COc1ccc(OC[C@H]2Cc3c(-c4ccccc4)nc4c(c3CO2)CN(CCOc2ccccc2)CC4)cc1', 'Torsin-1A (Homo sapiens) (UniProt O14656)', 'composite z-score', 0.534);

Provide measured composite z-score on Torsin-1A (Homo sapiens) (UniProt O14656) for `Cc1ccc(S[C@]2(C(=O)NCC(F)(F)F)CC(=O)N(Cc3ccccc3Cl)[C@@H]2c2ccc(CO)cc2I)cc1` please.
0.288

Provide measured composite z-score on Torsin-1A (Homo sapiens) (UniProt O14656) for `COc1ccc(O[C@H]2C=C[C@@H](c3ccccc3)O[C@@H]2COC(=O)CCC(C)=NO[C@@H](C)c2cc(-c3c(C)cc(C)cc3C)no2)cc1` please.
-1.04

Provide measured composite z-score on Torsin-1A (Homo sapiens) (UniProt O14656) for `CO[C@@H]1COC(=O)CC=C[C@@H](C)[C@@H]2C=C[C@@H](O)[C@@H](COC(=O)CC=C[C@H]1C)O2` please.
0.244

Provide measured composite z-score on Torsin-1A (Homo sapiens) (UniProt O14656) for `CCOC(=O)CCN1C(=O)[C@H]2[C@H]3[C@H](O)C=CC(=O)[C@@H]3CC[C@H]2C1=O` please.
-0.364

Provide measured composite z-score on Torsin-1A (Homo sapiens) (UniProt O14656) for `CO[C@@H]1COC(=O)CCC[C@@H](C)[C@H](OC)COC(=O)CCC[C@H]1C` please.
0.662

Provide measured composite z-score on Torsin-1A (Homo sapiens) (UniProt O14656) for `CC(C)[Si]1(C(C)C)O[C@@H](c2ccccc2)c2cc(C3CC3)nc(-c3ccccc3)c21` please.
-0.124
